measured_on: GCase (GBA) in human fibroblast cell line GM10915 harboring the L444P GBA mutation (Homo sapiens, UniProt P04062, L483P)
Construct: Human fibroblast cell line GM10915 harboring the L444P GBA mutation; host or cells: GM10915 human fibroblasts
experiment_summary: GCase activity assay (4-MUG substrate, normalised to crystal violet staining) in L444P GBA fibroblasts
Format: cell-based
reported_conditions: concentration giving 150% GCase activity (1.5-fold induction), 5 days exposure, 8-point dose range
Checkbox rule: GBA EC1.5 lower than 20 µM = fulfilled; GBA EC1.5 not lower than 20 µM = not fulfilled.

molecule	qualitative_label
CN(C)[C@H]1CC[C@@H](C2=NOCC(CN3CCCCC3)O2)CC1 (relative stereo)	fulfilled
C[C@]1(C2=NOC[C@H](CN3CCCCC3)O2)CCCNC1	fulfilled
C1CCN(CC2CON=C([C@]34CCC[C@H]3NCC4)O2)CC1 (relative stereo)	fulfilled
CC1(C2=NOCC(CN3CCCCC3)O2)CCNC1 (racemic)	fulfilled
C[C@H](N)C(=O)N1CCCC(C2=NOCC(CN3CCCCC3)O2)C1 (stereo partly drawn)	fulfilled
N[C@H]1CN[C@H](C2=NOCC(CN3CCCCC3)O2)C1 (stereo partly drawn)	not fulfilled
NC(=O)N1CCCC(C2=NOCC(CN3CCCCC3)O2)C1 (stereo not drawn)	not fulfilled
C[C@@]1(C2=NOC[C@@H](CN3CCCCC3)O2)CCCNC1	fulfilled
NC(=O)N1CCC(C2=NOCC(CN3CCCCC3)O2)C1 (stereo not drawn)	not fulfilled
CN1CCN(CCC2=NOCC(CN3CCCCC3)O2)CC1 (racemic)	fulfilled
COCCC1(C2=NOCC(CN3CCCCC3)O2)CCNCC1 (racemic)	fulfilled

---

Measured GBA EC1.5, listed per entry for reference.
measured_on: GCase (GBA) in human fibroblast cell line GM10915 harboring the L444P GBA mutation (Homo sapiens, UniProt P04062, L483P)
Construct: Human fibroblast cell line GM10915 harboring the L444P GBA mutation; host or cells: GM10915 human fibroblasts
experiment_summary: GCase activity assay (4-MUG substrate, normalised to crystal violet staining) in L444P GBA fibroblasts
Assay type: cell-based
reported_conditions: concentration giving 150% GCase activity (1.5-fold induction), 5 days exposure, 8-point dose range

molecule	GBA EC1.5 [µM]
C[C@]1(C2=NOC[C@@H](CN3CCCCC3)O2)CCCNC1	6
Fc1cncc(CC2(C3=NOCC(CN4CCCCC4)O3)CCNCC2)c1 (racemic)	6
Cn1cnc(CC2(C3=NOCC(CN4CCCCC4)O3)CCNCC2)c1 (stereo not drawn)	50
Nc1ccc(N2CCC(C3=NOCC(CN4CCCCC4)O3)C2)nc1 (stereo not drawn)	50
Nc1ccc(N2CCC(C3=NOCC(CN4CCCCC4)O3)CC2)nc1 (stereo not drawn)	50
c1sc(C2CCNCC2)nc1C1=NOCC(CN2CCCCC2)O1 (stereo not drawn)	3

---

measured_on: GCase (GBA) in human fibroblast cell line GM10915 harboring the L444P GBA mutation (Homo sapiens, UniProt P04062, L483P)
Construct: Human fibroblast cell line GM10915 harboring the L444P GBA mutation; host or cells: GM10915 human fibroblasts
Sequence (P04062 40-536 L483P): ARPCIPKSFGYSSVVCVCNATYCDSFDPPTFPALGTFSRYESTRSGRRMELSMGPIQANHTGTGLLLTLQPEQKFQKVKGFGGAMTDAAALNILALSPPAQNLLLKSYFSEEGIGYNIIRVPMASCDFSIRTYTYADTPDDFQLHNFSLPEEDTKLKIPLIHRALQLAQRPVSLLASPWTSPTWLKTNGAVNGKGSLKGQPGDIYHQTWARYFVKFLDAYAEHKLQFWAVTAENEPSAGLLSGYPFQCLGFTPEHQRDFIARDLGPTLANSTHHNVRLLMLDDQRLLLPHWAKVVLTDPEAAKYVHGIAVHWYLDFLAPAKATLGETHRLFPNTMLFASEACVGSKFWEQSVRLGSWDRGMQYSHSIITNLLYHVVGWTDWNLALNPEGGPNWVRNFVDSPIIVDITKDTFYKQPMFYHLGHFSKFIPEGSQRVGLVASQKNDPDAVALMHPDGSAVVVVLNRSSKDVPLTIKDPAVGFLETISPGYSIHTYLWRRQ
experiment_summary: GCase activity assay (4-MUG substrate, normalised to crystal violet staining) in L444P GBA fibroblasts
Format: cell-based
reported_conditions: concentration giving 150% GCase activity (1.5-fold induction), 5 days exposure, 8-point dose range

compound	GBA EC1.5 [µM]
CN1CCO[C@@H]2CN(CC3CON=C(C4(C)CCNCC4)O3)C[C@@H]21 (some centres unmarked) [compound 604]	50
CC1(C)CC(C2=NOCC(CN3CCCCC3)O2)CCN1 (racemic) [compound 705]	5
CC(N)C(=O)N1CCC(C2=NOCC(CN3CCCCC3)O2)CC1 (racemic) [compound 748]	16
C1CCN(CC2CON=C(C34CCN(CC3)CC4)O2)CC1 (racemic) [compound 642]	3
NCC(=O)N1CCCC(C2=NOCC(CN3CCCCC3)O2)C1 (racemic) [compound 725]	36
C1CCN(CC2CON=C([C@]34CNC[C@H]3COC4)O2)CC1 (relative stereo) [compound 494]	18
CN1CCN(CC2CON=C(C3(Cc4cccnc4)CCNCC3)O2)CC1 (centres unmarked) [compound 686]	50
NC(=O)N1CCC(C2=NOCC(CN3CCCCC3)O2)CC1 (centres unmarked) [compound 639]	50
CN(C)[C@H]1CNC[C@H]1C1=NOCC(CN2CCCCC2)O1 (mixture of isomers) [compound 766]	38
c1nc2n(n1)CCC(C1=NOCC(CN3CCCCC3)O1)C2 (centres unmarked) [compound 662]	50
COc1cc(OC)c(CNCCC2=NOCC(CN3CCCCC3)O2)cn1 (centres unmarked) [compound 829]	5
C1CCN(CC2CON=C([C@]34CC[C@H]3CNC4)O2)CC1 (relative stereo) [compound 485]	25
CC1ON=C(C2CCN(C(C)C)C2)OC1CN1CCCCC1 (racemic) [compound 621]	10
Fc1cccc(C2(C3=NOCC(CN4CCCCC4)O3)CCCNC2)n1 (centres unmarked) [compound 598]	1
O=C1CC(C2=NOCC(CN3CCCCC3)O2)CCN1 (centres unmarked) [compound 649]	50
CC(C)(C1=NOCC(CN2CCCCC2)O1)C1CCNCC1 (racemic) [compound 477]	15
CC1(C2=NOC[C@@H](CN3CCCCC3)O2)CCNCC1 [compound 886]	7
